assay.system: intracellular domain of human Tie2 (GST fusion protein) (Homo sapiens, UniProt Q02763)
Construct: intracellular domain of human Tie2 (amino acids 776-1124)
Sequence (Q02763 776-1124): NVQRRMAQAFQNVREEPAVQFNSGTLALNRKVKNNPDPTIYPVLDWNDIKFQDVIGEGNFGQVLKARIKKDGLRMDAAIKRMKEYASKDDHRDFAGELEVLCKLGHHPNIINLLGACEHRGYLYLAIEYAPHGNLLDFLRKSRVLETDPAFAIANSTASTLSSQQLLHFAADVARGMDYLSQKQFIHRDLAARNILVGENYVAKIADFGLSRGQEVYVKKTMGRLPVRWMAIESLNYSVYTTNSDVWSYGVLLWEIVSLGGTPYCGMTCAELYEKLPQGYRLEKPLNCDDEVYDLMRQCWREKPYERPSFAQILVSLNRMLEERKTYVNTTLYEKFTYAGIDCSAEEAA
method.description: Tie2 kinase assay (Tie2-TR-FRET)
experimental.parameters: ATP concentration 1 mM, in some cases means of several independent determinations
readout.type: IC50 (µM)
Write it as a number; the unit µM goes unstated.

| molecule | assay.system | IC50, µM |
| --- | --- | --- |
| Cc1ccc(NC(=O)c2cc(-n3ccnc3C)cc(C(F)(F)F)c2)cc1-n1ccn2nc(-c3cn[nH]c3)cc12 [Example 6] | intracellular domain of human Tie2 (GST fusion protein) (Homo sapiens, UniProt Q02763) | 0.005 |
| Cc1cc(C)c(-n2ccn3nc(-c4cccnc4)cc23)cc1NC(=O)c1cccc(SC(F)(F)F)c1 [Example 126] | intracellular domain of human Tie2 (GST fusion protein) (Homo sapiens, UniProt Q02763) | 0.0012 |
| Cc1ccc(NC(=O)c2cccc(OC(C)C)c2)cc1-n1ccn2nc(-c3cccnc3)cc12 [Example 60] | intracellular domain of human Tie2 (GST fusion protein) (Homo sapiens, UniProt Q02763) | 0.125 |
| N#Cc1cc(C(=O)Nc2cccc(-n3ccn4nc(-c5cccnc5)cc34)c2O)cc(S(F)(F)(F)(F)F)c1 [Example 83] | intracellular domain of human Tie2 (GST fusion protein) (Homo sapiens, UniProt Q02763) | 0.11 |
| Cc1cc(C)c(-n2ccn3nc(-c4cccnc4)cc23)cc1NC(=O)c1cccc(C(C)(C)O)c1 [Example 141] | intracellular domain of human Tie2 (GST fusion protein) (Homo sapiens, UniProt Q02763) | 0.062 |
| COc1ccc(NC(=O)c2cccc(S(F)(F)(F)(F)F)c2)cc1-n1ccn2nc(-c3cccnc3)cc12 [Example 72] | intracellular domain of human Tie2 (GST fusion protein) (Homo sapiens, UniProt Q02763) | 0.35 |

Read off the recorded IC50 for CCOCCOc1cccc(C(=O)Nc2cc(-n3ccn4nc(-c5cccnc5)cc34)c(C)cc2C)c1 [Example 135] 0.607

* * *

assay.system: endogenous Tie2 receptor (Homo sapiens)
Construct: the endogenous Tie2 receptor
Sequence (Q02763 23-1124): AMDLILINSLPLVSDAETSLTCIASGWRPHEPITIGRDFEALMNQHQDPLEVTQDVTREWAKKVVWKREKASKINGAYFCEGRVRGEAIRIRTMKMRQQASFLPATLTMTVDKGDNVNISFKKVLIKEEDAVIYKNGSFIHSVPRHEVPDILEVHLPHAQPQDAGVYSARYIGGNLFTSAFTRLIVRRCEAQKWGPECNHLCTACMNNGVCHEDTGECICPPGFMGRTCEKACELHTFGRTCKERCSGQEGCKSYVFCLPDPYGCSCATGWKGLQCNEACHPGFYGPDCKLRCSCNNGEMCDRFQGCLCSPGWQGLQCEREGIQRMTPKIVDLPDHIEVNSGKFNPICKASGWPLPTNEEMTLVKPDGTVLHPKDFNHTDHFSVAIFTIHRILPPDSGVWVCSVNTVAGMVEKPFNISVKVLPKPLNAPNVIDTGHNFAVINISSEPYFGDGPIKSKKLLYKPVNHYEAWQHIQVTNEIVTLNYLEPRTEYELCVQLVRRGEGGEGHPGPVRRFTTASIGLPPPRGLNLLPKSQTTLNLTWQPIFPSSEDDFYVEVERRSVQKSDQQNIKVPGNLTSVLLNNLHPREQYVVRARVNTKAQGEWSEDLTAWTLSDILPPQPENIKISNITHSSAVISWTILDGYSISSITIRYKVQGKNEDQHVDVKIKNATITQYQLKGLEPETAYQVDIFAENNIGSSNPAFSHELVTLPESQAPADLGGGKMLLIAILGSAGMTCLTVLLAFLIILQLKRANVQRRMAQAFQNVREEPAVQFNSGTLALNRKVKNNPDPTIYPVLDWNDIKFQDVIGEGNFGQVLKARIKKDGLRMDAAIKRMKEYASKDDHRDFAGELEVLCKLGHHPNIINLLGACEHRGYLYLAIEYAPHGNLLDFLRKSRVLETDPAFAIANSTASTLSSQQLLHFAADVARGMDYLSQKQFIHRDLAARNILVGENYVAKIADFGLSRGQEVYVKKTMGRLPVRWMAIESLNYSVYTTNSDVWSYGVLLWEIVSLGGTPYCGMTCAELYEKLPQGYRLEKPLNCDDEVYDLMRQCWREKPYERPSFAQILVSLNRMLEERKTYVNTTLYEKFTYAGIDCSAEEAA
method.description: Tie2-pTyr-ELISA: autophosphorylation of endogenous Tie2 receptor in HUVEC
experimental.parameters: autophosphorylation elevated by sodium orthovanadate (4 mM), Tie2/phosphotyrosine sandwich ELISA, from 2-7 independent measurements
As shown below, each of these compounds has a reported log10 of IC50 value.
For clarity, the numbers are log10 values of IC50 expressed in nM.

Some entries whose results are on file:
| molecule | readout.number |
| --- | --- |
| Cc1ccc(NC(=O)c2cc(C#N)cc(S(F)(F)(F)(F)F)c2)cc1-n1cc(C)n2nc(-c3cn[nH]c3)cc12 | 0.67 |
| Cc1ccc(NC(=O)c2cc(-n3ccnc3C)cc(C(F)(F)F)c2)cc1-n1ccn2nc(-c3cn[nH]c3)cc12 | 1.23 |
| Cc1cc(Cl)c(-n2ccn3nc(-c4cccnc4)cc23)cc1NC(=O)c1cccc(S(F)(F)(F)(F)F)c1 | 0.00 |
| Cc1ccc(NC(=O)c2cc(C#N)cc(S(F)(F)(F)(F)F)c2)cc1-n1ccn2nc(-c3cccnc3)cc12 | 0.56 |
| Cc1cc(C)c(-n2ccn3nc(-c4cccnc4)cc23)cc1NC(=O)c1cc(C#N)nc(C(C)(C)C)c1 | 0.46 |
| Cc1ccc(NC(=O)c2cc(C(C)(C)O)cc(S(F)(F)(F)(F)F)c2)cc1-n1ccn2nc(-c3cn[nH]c3)cc12 | 0.67 |

Read off the recorded log10 of IC50 for "Cc1cc(NC(=O)c2cc(C#N)cc(S(F)(F)(F)(F)F)c2)cc(-n2ccn3nc(-c4cccnc4)cc23)c1C" 1.26

Read off the recorded log10 of IC50 for "Cc1ccc(NC(=O)c2cc(S(C)(=O)=O)cc(S(F)(F)(F)(F)F)c2)cc1-n1ccn2nc(-c3cccnc3)cc12" 0.48

Read off the recorded log10 of IC50 for "Cc1cc(F)c(NC(=O)c2cc(C#N)cc(S(F)(F)(F)(F)F)c2)cc1-n1ccn2nc(-c3cccnc3)cc12" 0.23

Read off the recorded log10 of IC50 for "CNc1cc(C(=O)Nc2ccc(C)c(-n3ccn4nc(-c5cccnc5)cc34)c2)cc(C(C)(C)C)n1" 1.66
